These data points were gathered from patent EP0908457B1.

This listing pairs compounds with measured ORYSAT.
Test system: Oryza sativa, (L.) Tebonnet
Assay: Rice tolerance to post-transplant applications under flooded paddy conditions (Example 187), ORYSAT (Rice, Tebonnet)
Details: 0.0620 kg/ha, herbicidal effect rating 0-9, three to four weeks after treatment

Below are worked cases with known answers.
Which ORYSAT value belongs to Cn1c(C(F)(F)F)cc(=O)n(-c2ccc3snc(COC4CCCCO4)c3c2)c1=O (stereo not drawn) ?
8.0

Which ORYSAT value belongs to `Cc1ccc(OCC(=O)N(C)S(C)(=O)=O)c(-c2nsc3ccc(-n4c(=O)cc(C(F)(F)F)n(C)c4=O)cc23)c1` ?
5.0

Which ORYSAT value belongs to `Cn1c(C(F)(F)F)cc(=O)n(-c2ccc3snc(C(=O)NS(=O)(=O)Cc4ccc(OC(F)(F)F)cc4)c3c2)c1=O` ?
0.0

Which ORYSAT value belongs to `Cn1c(C(F)(F)F)cc(=O)n(-c2ccc3snc(C(=O)NS(=O)(=O)Cc4ccc(C(C)(C)C)cc4)c3c2)c1=O` ?
0.0

Which ORYSAT value belongs to CCC(C#N)c1nsc2ccc(-n3c(=O)cc(C(F)(F)F)n(C)c3=O)cc12 (stereo not drawn) ?
6.5

Which ORYSAT value belongs to `COc1ccc(I)cc1-c1nsc2ccc(-n3c(=O)cc(C(F)(F)F)n(C)c3=O)cc12` ?
4.0

Which ORYSAT value belongs to `CN(/N=C/c1nsc2ccc(-n3c(=O)cc(C(F)(F)F)n(C)c3=O)cc12)c1ccccc1` ?
0.0

Which ORYSAT value belongs to CC(OS(=O)(=O)c1ccccc1)c1nsc2ccc(-n3c(=O)cc(C(F)(F)F)n(C)c3=O)cc12 (stereo not drawn) ?
4.0

Others:
Which ORYSAT value belongs to `CN(C)/N=C/c1nsc2ccc(-n3c(=O)cc(C(F)(F)F)n(C)c3=O)cc12` ?
5.0

* * *

This listing pairs compounds with measured herbicidal effect rating, CYPSE.
Tested on: Cyperus serotinus, Rottb.
Experiment: Preemergence weed control under flooded paddy conditions, CYPSE (Flatsedge); also: meaning of each grade not given here
Format: in vivo
Details: Rate 0.2500 kg/ha, preemergence, rated 3-4 weeks after treatment
Answer with the value's number alone.

Which herbicidal effect rating, CYPSE value belongs to `C=CCOC(=O)/C=C/c1nsc2ccc(-n3c(=O)cc(C(F)(F)F)n(C)c3=O)cc12` ?
3.0

* * *

Test system: Echinochloa oryzoides (Ard.) Fritsch.
Experiment: Preemergence weed control under flooded paddy conditions, ECHORC (Watergrass (Calif.))
Type: in vivo
Conditions: Rate 0.0625 kg/ha; preemergence, flooded paddy; rated three to four weeks after treatment
Measurement Kind: ECHORC herbicidal effect rating
Answer with the value's number alone.

Below are worked cases with known answers.
Which ECHORC herbicidal effect rating value belongs to `Cn1c(C(F)(F)F)cc(=O)n(-c2ccc3snc(COCCCCl)c3c2)c1=O` ?
9.0

Which ECHORC herbicidal effect rating value belongs to C=C(C)C1CC=C(COCc2nsc3ccc(-n4c(=O)ccn(C)c4=O)cc23)CC1 (centres unmarked) ?
4.0

Which ECHORC herbicidal effect rating value belongs to C=C(C(=O)OC)C(C)OCc1nsc2ccc(-n3c(=O)cc(C(F)(F)F)n(C)c3=O)cc12 (centres unmarked) ?
0.0

Which ECHORC herbicidal effect rating value belongs to CC(OCc1nsc2ccc(-n3c(=O)cc(C(F)(F)F)n(C)c3=O)cc12)C(F)(F)F (centres unmarked) ?
0.0

Others:
Which ECHORC herbicidal effect rating value belongs to `CC(C)=CCOCc1nsc2ccc(-n3c(=O)cc(C(F)(F)F)n(C)c3=O)cc12` ?
9.0
